Tested on: COR L88 complex tumor spheroid viability
TEST_METHOD_NOTES: Anticancer human tumor COR L88 cell line growth inhibition;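 also: compound exposure lasted 7 days before viability readout; percent of DMSO vehicle-treated spheroids = 100%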
ASSAY_CONDITIONS: second compound 0.000949 µM; first compound 0.0316 µM; active compounds read low
This section presents molecules with their documented viability, T/C values.
# value in %; strip the unit string

[2H]c1nc(C)nc([2H])c1-c1cc(NC[C@@H](C)c2cccc3c(C(=O)NC)ccnc23)ncn1 + COc1cc2c(cc1O)CCNC21CSC2c3c(OC(C)=O)c(C)c4c(c3C(COC1=O)N1C(O)C3Cc5cc(C)c(OC)c(O)c5C(C21)N3C)OCO4 : 59

Give COR L88 complex tumor spheroid viability viability, T/C for the following molecule: COc1ccc([C@@H](O)c2cc(-c3ncnc4cc(N5CCOCC5)ccc34)c(F)cc2Cl)nn1 + COc1cc2c(cc1O)CCNC21CSC2c3c(OC(C)=O)c(C)c4c(c3C(COC1=O)N1C(O)C3Cc5cc(C)c(OC)c(O)c5C(C21)N3C)OCO4
63.2

Give COR L88 complex tumor spheroid viability viability, T/C for the following molecule: CC(C)n1c(=O)n(C)c2cnc3cc(F)c(-c4ccc(OCCCN5CCCCC5)nc4)cc3c21 + COc1cc2c(cc1O)CCNC21CSC2c3c(OC(C)=O)c(C)c4c(c3C(COC1=O)N1C(O)C3Cc5cc(C)c(OC)c(O)c5C(C21)N3C)OCO4
57.3

Give COR L88 complex tumor spheroid viability viability, T/C for the following molecule: COc1cc(C)[nH]c(=O)c1CN1CCc2c(Cl)cc(C(OC)C3COC3)c(Cl)c2C1=O (stereo unspecified) + COc1cc2c(cc1O)CCNC21CSC2c3c(OC(C)=O)c(C)c4c(c3C(COC1=O)N1C(O)C3Cc5cc(C)c(OC)c(O)c5C(C21)N3C)OCO4
39.6

Give COR L88 complex tumor spheroid viability viability, T/C for the following molecule: Cc1cc(C)c(CNC(=O)c2cc(-c3ccc(CN4CCOCC4)cc3)cc3c2cnn3C2CCCC2)c(=O)[nH]1 + COc1cc2c(cc1O)CCNC21CSC2c3c(OC(C)=O)c(C)c4c(c3C(COC1=O)N1C(O)C3Cc5cc(C)c(OC)c(O)c5C(C21)N3C)OCO4
49.3

Give COR L88 complex tumor spheroid viability viability, T/C for the following molecule: CC1COCCN1c1cc(-c2ccnn2C)c2ccnc(-c3ccn[nH]3)c2n1 (stereo unspecified) + COc1cc2c(cc1O)CCNC21CSC2c3c(OC(C)=O)c(C)c4c(c3C(COC1=O)N1C(O)C3Cc5cc(C)c(OC)c(O)c5C(C21)N3C)OCO4
6.86
